target: Endoribonuclease toxin MazF (Escherichia coli K-12, UniProt P0AE70); assay: MazF toxin RNase activators, dose response, biochemical, fluorescence, single-stranded RNA substrate, uHTS hits (AID 588481); assay type: functional
Sequence (P0AE70 whole entry): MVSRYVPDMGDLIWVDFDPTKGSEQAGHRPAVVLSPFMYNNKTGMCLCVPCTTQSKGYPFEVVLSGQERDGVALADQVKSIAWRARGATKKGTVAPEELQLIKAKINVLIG
The source made the active and inactive calls.
// values below are reported EC50

The examples below pair each entry with its known result.
# RECORD SMILES, OBSERVED PROPERTY, OBSERVED RESULT
data = [
    ("CCCCN1C(=O)NC(=O)/C(=C/c2c[nH]c3ccccc23)C1=O", "EC50", "> 99 µM (inactive)"),
    ("O=C1NC(=S)S/C1=C/c1ccc(OC(=O)c2ccco2)cc1", "EC50", "> 99 µM (inactive)"),
]

input: What is its EC50 for Endoribonuclease toxin MazF (Escherichia coli K-12, UniProt P0AE70)? Entry: C=CCN1C(=O)/C(=N/Nc2ccccc2O)c2ccccc21
output: > 99 µM (inactive)

input: Enter reported EC50 observed with Endoribonuclease toxin MazF (Escherichia coli K-12, UniProt P0AE70) for CCn1c(/C=C/c2ccc([N+](=O)[O-])o2)nc2ccccc2c1=O
output: > 99 µM (inactive)

###

assay: Luminescence Cell-Based Dose Confirmation HTS to Identify Inhibitors of Platelet Dense Granule Release. [Related pubchem assays: 1663 (Primary HTS), 1678 (Summary of Project)]; type: functional
Active and inactive are the calls of the source.
OBSERVED PROPERTY: EC50

A selection of reference data follows.
# COMPOUND, EC50
records = [
    ("N#CC(c1ccc(Cl)cc1)N1CCOCC1 (stereo unspecified)", "> 112 µM (not active)"),
    ("O=C(c1ccc(S(=O)(=O)Nc2ccccc2)cc1)N1CCCCCCC1", "> 112 µM (not active)"),
    ("O=C1C=C(c2ccccc2)C(=O)N1Nc1ccccc1", "8.82 µM (active)"),
    ("COc1cccc(C(=O)/C=C/Nc2cccc(O)c2)c1", "2.07 µM (active)"),
    ("C/C(=N/OC(=O)c1ccc(C)cc1)c1cccs1", "5.14 µM (active)"),
]

Okay, now this compound:
input: GET /values?readout=EC50&item= Cc1ccc(-c2nc(-c3ccccn3)no2)cc1
output: 2.52 µM (active)

###

Target: Cytochrome P450 1A2 (Homo sapiens);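 also: PubChem cytochrome P450 panel assay, CYP1A2 panel member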
Sequence (P05177 whole entry): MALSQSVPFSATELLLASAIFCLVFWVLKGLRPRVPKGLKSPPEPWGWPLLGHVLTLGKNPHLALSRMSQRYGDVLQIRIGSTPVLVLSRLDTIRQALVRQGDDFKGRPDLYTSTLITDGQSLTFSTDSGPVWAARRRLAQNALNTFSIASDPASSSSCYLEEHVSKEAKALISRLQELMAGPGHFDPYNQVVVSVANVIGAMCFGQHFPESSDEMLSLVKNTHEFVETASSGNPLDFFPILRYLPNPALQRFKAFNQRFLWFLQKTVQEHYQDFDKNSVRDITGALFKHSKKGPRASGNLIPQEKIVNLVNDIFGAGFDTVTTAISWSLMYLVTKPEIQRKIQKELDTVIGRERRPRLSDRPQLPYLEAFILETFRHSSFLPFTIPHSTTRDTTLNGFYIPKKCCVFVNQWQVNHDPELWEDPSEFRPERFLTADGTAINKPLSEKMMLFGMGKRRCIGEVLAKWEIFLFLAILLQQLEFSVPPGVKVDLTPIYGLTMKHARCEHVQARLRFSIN
Parameter: AC50. Scope: all listed entries.

// worked examples, AC50 included
# COMPOUND, AC50
records = [
    ("COc1ccc(-c2ccc(/C=C3\\C(=O)N(c4ccccc4)N=C3c3ccccc3)o2)c([N+](=O)[O-])c1", "5.01 µM (inconclusive)"),
    ("CCCC[C@@H]1C[C@H]1C(NC(=O)c1cccs1)c1ccc(-c2ccccc2)cc1 (stereo partly specified)", "2 µM (inconclusive)"),
    ("COc1ccc(C(=O)NC(=S)NNC(=O)CCc2ccccc2)cc1", "15.8 µM (inconclusive)"),
    ("C[C@]12Cc3cn4c(nc3C=C1CC[C@H]1[C@@H]2CC[C@@]2(C)[C@H]1CC[C@@]2(O)C#N)nc1ccccc14", "15.8 µM (inconclusive)"),
    ("Cc1ccccc1OCC(=O)Nc1ccc(N2CCN(C(=O)C(C)C)CC2)c(Cl)c1", "15.8 µM (inconclusive)"),
    ("Cc1cnc(CNc2ncncc2-c2ccc(C(=O)N(C)C)cc2)cn1", "20 µM (inconclusive)"),
    ("COc1cccc(C(=O)NCCN2CCN(c3ccc(Cl)cc3)CC2)c1", "12.6 µM (inconclusive)"),
    ("O=C(NC12CC3CC(CC(C3)C1)C2)c1ccc(COc2ccc(Cl)cc2[N+](=O)[O-])o1", "14.1 µM (inconclusive)"),
]

input: What does the data say about its AC50? Entry: CCC/C=C(\CCC)C(NC(=O)c1ccc(-c2ccccc2)cc1)c1ccc(C(=O)OC)cc1 (stereo unspecified)
output: 0.631 µM (inconclusive)

input: Could you share which AC50 value was measured for N#C/C(=C\N1CCNC1=S)C(=O)c1ccc2ccccc2c1 ?
output: 1.58 µM (inconclusive)

input: Could you tell me which AC50 is on file for COc1ccc(C(=O)N2CCC3(CCN(Cc4ccc(C#N)cc4)CC3)CC2)cc1 ?
output: 12.6 µM (inconclusive)

input: What does the data say about its AC50? Entry: CCC(=O)c1ccc(OCc2ccc(C(=O)OC)cc2)c(OC)c1
output: 6.31 µM (inconclusive)

input: Find the recorded AC50 belonging to CN(CCC(=O)O)C1=Nc2ccc(Cl)cc2C(c2ccccc2)=[N+]([O-])C1 and report it.
output: 0.0631 µM (inconclusive)

input: What value of AC50 has been recorded for this entry: CC(C)CNC(=O)c1nc(-c2ccccc2)n(-c2ccccc2)n1
output: 28.2 µM (inconclusive)

input: What value of AC50 has been recorded for this entry: Cc1cccc(Cn2ncc(Cl)c(Cl)c2=O)c1
output: 22.4 µM (inconclusive)

input: Item under review: N#Cc1cccc(NC(=O)N2CCCC3(CCN(C(=O)c4cc(C(F)(F)F)cc(C(F)(F)F)c4)CC3)C2)c1 . Reported AC50?
output: 6.31 µM (inconclusive)

###

Molecular target: DNA repair protein RAD52 homolog (Homo sapiens)
Sequence (P43351 whole entry): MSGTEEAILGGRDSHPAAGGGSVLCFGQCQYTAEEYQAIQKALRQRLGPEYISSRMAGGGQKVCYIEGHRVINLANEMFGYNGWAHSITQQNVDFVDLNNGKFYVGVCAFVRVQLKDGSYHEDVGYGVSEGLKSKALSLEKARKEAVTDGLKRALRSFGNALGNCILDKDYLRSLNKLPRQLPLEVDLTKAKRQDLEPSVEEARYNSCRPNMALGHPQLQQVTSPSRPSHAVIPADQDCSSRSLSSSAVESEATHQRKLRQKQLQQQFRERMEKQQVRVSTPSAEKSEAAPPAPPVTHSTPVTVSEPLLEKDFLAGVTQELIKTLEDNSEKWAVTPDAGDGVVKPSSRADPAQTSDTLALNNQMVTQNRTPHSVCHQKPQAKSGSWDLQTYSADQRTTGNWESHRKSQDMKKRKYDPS
Assay type: functional, biochemical
Activity calls are given as the source filed them.
OBSERVED PROPERTY: AC50

# COMPOUND, TARGET OF ASSAY, AC50
measured = [
    ("CN(C)c1ccc2nc3ccc(=[N+](C)C)cc-3sc2c1 [METHYLENE BLUE ANHYDROUS]", "DNA repair protein RAD52 homolog (Homo sapiens)", "0.936 µM (active)"),
]

input: Consider the compound shown here: CCc1c(C2CC2)ncn1Cc1cccc(-c2ccccc2)c1 What is its recorded AC50?
output: 24.5 µM (active)

input: # query: AC50 of entry N=C(N)N/N=C/c1cn(-c2ccccc2)nc1-c1cccs1.O=[N+]([O-])O
output: 3.85 µM (active)

input: GET /values?readout=AC50&item= Nc1ccc(Nc2ccncc2)cc1
output: 16.9 µM (active)

input: Query: AC50; subject: CCCCN(CC)CCNC(=O)c1cc2c(-c3ccc(Cl)cc3)nn(C)c2s1
output: 6.76 µM (active)

input: What does the record list as AC50 for Cc1cccn2c(=O)c3cc(C(=O)NCCN4CCOCC4)c(=N)n(CCN4CCOCC4)c3nc12 ?
output: 13.7 µM (active)

input: # AC50 lookup, item Cc1cc(N/N=C/c2ccc(O)cc2)c2cccc(C)c2n1
output: 2.56 µM (active)

###

Recorded IC50 for the following compounds
molecular target: Fatty acid synthase (Homo sapiens, UniProt P49327); assay: FAS thioesterase domain inhibitors, dose response, biochemical, endpoint fluorescence intensity, uHTS hits (AID 624327); type: functional;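 also: fluorescence from hydrolysis of an O-methyl fluorescein acyl ester substrate by the enzyme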
Sequence (P49327 whole entry, the tested form may be a part): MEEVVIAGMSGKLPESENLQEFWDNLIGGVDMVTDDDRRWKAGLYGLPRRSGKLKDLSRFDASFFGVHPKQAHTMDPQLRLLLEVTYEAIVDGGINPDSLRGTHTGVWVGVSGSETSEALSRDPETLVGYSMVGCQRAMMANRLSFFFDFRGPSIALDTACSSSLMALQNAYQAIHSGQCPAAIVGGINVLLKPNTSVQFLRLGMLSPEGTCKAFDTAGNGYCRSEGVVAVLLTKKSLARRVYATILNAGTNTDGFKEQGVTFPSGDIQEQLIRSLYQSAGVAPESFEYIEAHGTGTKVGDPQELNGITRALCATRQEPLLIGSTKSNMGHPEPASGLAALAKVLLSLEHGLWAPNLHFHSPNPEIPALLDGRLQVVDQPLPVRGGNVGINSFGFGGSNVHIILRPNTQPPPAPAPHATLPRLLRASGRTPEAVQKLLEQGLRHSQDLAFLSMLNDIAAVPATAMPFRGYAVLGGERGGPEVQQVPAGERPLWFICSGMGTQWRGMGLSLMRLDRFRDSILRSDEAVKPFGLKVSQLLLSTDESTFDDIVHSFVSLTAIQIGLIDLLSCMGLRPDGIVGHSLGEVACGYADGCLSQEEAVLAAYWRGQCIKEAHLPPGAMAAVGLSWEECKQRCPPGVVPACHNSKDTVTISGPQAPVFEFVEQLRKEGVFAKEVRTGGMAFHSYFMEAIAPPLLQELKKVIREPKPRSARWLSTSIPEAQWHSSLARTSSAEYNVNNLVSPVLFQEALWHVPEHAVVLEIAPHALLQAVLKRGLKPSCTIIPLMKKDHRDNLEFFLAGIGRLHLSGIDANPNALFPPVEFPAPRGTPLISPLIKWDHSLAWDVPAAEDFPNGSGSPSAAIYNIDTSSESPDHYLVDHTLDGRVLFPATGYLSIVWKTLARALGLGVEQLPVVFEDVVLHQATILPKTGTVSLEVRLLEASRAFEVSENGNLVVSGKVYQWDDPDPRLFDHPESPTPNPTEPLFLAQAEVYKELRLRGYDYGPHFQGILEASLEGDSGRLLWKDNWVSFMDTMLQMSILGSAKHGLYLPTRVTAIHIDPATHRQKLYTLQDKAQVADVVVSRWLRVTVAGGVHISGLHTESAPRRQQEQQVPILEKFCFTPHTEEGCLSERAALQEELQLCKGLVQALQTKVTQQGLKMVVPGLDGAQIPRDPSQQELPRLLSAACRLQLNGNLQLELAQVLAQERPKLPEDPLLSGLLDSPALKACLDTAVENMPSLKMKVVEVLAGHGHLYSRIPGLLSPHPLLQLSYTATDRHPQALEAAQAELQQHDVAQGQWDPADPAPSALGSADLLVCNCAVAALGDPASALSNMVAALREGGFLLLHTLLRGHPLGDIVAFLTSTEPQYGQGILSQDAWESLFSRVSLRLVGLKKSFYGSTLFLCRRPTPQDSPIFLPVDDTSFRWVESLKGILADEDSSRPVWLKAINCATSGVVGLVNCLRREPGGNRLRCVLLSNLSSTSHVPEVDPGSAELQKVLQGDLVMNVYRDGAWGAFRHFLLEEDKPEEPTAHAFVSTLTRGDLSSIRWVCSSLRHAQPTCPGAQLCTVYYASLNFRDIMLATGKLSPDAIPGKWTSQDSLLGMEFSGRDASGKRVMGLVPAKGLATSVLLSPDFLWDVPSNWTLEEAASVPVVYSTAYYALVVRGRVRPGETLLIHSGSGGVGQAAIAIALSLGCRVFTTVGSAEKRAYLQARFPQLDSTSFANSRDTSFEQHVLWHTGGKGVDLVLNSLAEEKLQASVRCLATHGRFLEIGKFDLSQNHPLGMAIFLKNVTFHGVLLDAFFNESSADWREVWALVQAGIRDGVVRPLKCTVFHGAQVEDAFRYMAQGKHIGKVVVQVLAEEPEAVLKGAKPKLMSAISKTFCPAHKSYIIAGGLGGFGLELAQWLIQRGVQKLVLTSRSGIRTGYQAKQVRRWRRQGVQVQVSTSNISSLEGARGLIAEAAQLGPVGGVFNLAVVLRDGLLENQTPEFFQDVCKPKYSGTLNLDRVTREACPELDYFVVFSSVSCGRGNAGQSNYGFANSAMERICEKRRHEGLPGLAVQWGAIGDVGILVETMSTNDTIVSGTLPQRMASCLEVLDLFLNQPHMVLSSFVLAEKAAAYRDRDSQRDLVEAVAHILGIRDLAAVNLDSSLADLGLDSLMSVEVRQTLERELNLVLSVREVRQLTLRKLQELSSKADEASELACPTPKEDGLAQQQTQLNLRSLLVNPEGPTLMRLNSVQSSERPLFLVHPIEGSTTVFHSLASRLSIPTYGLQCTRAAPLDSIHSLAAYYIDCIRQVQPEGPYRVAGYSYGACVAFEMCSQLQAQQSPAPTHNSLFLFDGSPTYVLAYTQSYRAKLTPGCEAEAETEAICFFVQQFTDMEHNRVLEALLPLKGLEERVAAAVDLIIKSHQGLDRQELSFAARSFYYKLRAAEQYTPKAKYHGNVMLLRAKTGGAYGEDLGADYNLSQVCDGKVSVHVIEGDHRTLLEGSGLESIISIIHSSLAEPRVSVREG
The source made the active and inactive calls.

# RECORD SMILES, IC50
data = [
    ("CCCn1c(SCC(=O)Nc2ccccc2-c2ccccc2)nnc1-c1ccoc1C", "8.34 µM (active)"),
    ("O=C(Cn1cnc([N+](=O)[O-])n1)N/N=C/c1cc(Cl)ccc1O", "1.22 µM (active)"),
    ("O=S(=O)(c1ccccc1)n1ccc(-c2cnc(-c3ccccc3)s2)n1", "7.41 µM (active)"),
]

input: # IC50 lookup, item O=C(CCCC(=O)Nc1cccc(Br)c1)N/N=C/c1cc([N+](=O)[O-])ccc1O
output: 10 µM (active)

input: Bench note: what IC50 did O=C(/C=C/c1cccc([N+](=O)[O-])c1)NCCSCc1ccc(Cl)cc1Cl show?
output: 10.4 µM (active)

input: Any idea what its IC50 is? The compound is Cc1ccc(Cn2c(C)nc3ccc([N+](=O)[O-])cc3c2=O)cc1
output: 4.8 µM (active)

input: Report IC50 for Cc1cc(C)c(NC(=O)COC(=O)c2cc([N+](=O)[O-])ccc2N2CCOCC2)c(C)c1 please.
output: 6.16 µM (active)

input: Give the measured IC50 of N#Cc1c(N)[nH]c(C(=O)c2ccccc2)c1-c1ccc(Cl)cc1 .
output: 7.39 µM (active)
